Reported growth values for a set of compounds
# Test system: 786-0 renal
# ASSAY DETAILS: NCI-60 one-dose screen, 48 h (100 = growth as untreated, 0 = no growth, -100 = all killed)
# CONDITION CONTEXT: 10 µM
The panel holds about 83,000 compounds, 20% with a hit somewhere; the sample as a whole holds those more often. The source made the active and inactive calls. Rule for the calls: active = growth percent below 10; inactive = the rest.

Answered examples (5):
COMPOUND: Cc1ccc(/C=C/C(=O)c2ccc(S(=O)(=O)NCCNc3nc(Nc4ccc(F)cc4)nc(N(C)C)n3)cc2)cc1
TEST VALUE: -32% (active)
--
COMPOUND: CC1=C(C(=O)OC(C)C)C(c2ccc(O)cc2)NC(=S)N1 (centres undefined)
TEST VALUE: 95.7% (inactive)
--
COMPOUND: Cc1noc2c(Cc3ccc([N+](=O)[O-])cc3)nn(CC(=O)N/N=C/c3ccc(Cl)cc3)c(=O)c12
TEST VALUE: -19.5% (active)
--
COMPOUND: O=C(CSc1nnc(-c2ccc3nc(-c4ccccc4)[nH]c3c2)o1)Nc1ccc(Br)cc1
TEST VALUE: 66.7% (inactive)
--
COMPOUND: O=C(Nc1nc2ccc([N+](=O)[O-])cc2s1)Nc1cc(Cl)ccc1I
TEST VALUE: -49.4% (active)

Continue with the compound presented below.
(Q) State, in one line, measured growth of O=C(Nc1ccncc1)c1ccc(-n2c(=O)[nH]c3ccccc3c2=O)cc1
(A) 94.2% (inactive)
